SYSTEM UNDER TEST: T1, MotA wild type (bacteriophage T4, UniProt P22915 1-211)
T1 sequence: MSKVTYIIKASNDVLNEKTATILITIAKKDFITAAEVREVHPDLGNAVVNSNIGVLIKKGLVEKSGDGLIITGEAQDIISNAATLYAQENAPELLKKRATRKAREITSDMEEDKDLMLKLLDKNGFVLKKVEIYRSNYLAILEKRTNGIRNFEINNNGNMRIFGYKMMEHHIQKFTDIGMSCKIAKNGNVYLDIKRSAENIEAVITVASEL
EXPERIMENT DESCRIPTION: EMSA
pKd: −log10 of the molar value.
MEASURED METRIC: pKd

INSERT INTO results (binder, measured_metric, observed) VALUES
  ('21 bp MotA box DNA (dsDNA) DNA 1: GAATTATTTGCTTTAGATTAC DNA 2: GTAATCTAAAGCAAATAATTC', 'pKd', '~6.22');
